System: NCI-H292 lung cancer cells
Assay: FDA drug screening, complete media vs cholesterol-free media without statin (TABLE 1)
Assay type: cell-based, human
Details: Complete minus Cholesterol-free; […]
Counter-ions that a name gives are not always drawn.
Recorded Difference determines the label; the label ranges are lo = under -0.2, mid = from -0.2 up to -0.07, hi = -0.07 and over

Previously resolved entries follow.
[[record]]
compound = "N#Cc1nn(-c2c(Cl)cc(C(F)(F)F)cc2Cl)c(N)c1[S+]([O-])C(F)(F)F (stereo not shown)"
group_label = "lo"

[[record]]
compound = "CC1=C[C@]23C(=O)[C@@H](C=C(CO)[C@@H](O)[C@]2(O)[C@H]1O)[C@H]1[C@@H](C[C@H]3C)C1(C)C"
group_label = "lo"

[[record]]
compound = "CC(=O)Oc1cc(C)c(OC(C)=O)c2ccccc12"
group_label = "lo"

[[record]]
compound = "COC(=O)C[C@](O)(CCC(C)(C)O)C(=O)O[C@@H]1C(OC)=C[C@]23CCCN2CCc2cc4c(cc2[C@H]13)OCO4"
group_label = "hi"

[[record]]
compound = "CC(=O)NCCCS(=O)(=O)O [Acamprosate (calcium)]"
group_label = "hi"

[[record]]
compound = "NCC[C@H](O)C(=O)N[C@@H]1C[C@H](N)[C@@H](O[C@H]2O[C@H](CN)[C@@H](O)[C@H](O)[C@H]2O)[C@H](O)[C@H]1O[C@H]1O[C@H](CO)[C@@H](O)[C@H](N)[C@H]1O [Amikacin (disulfate)]"
group_label = "mid"


Query: Sort NCCCC[C@H](N)C(=O)O into one of the categories.
Response: lo

Query: Sort CSCCNc1nc(SCCC(F)(F)F)nc2c1ncn2[C@@H]1O[C@H](COP(=O)([O-])OP(=O)([O-])C(Cl)(Cl)P(=O)([O-])[O-])[C@@H](O)[C@H]1O.[Na+].[Na+].[Na+].[Na+] [Cangrelor (tetrasodium)] into one of the categories.
Response: mid

Query: Sort NC(=O)OC[C@H](N)Cc1ccccc1 [Solriamfetol (hydrochloride)] into one of the categories.
Response: hi

Query: Sort NC[C@H](CC(=O)O)c1ccc(Cl)cc1 [(R)-Baclofen] into one of the categories.
Response: lo

Query: Sort COc1cccc2c1cc([N+](=O)[O-])c1c(C(=O)O)cc3c(c12)OCO3 into one of the categories.
Response: lo

Query: Sort CC(=O)OC[C@H]1O[C@@H]([S-])[C@H](OC(C)=O)[C@@H](OC(C)=O)[C@@H]1OC(C)=O.CCP(CC)CC.[Au+] into one of the categories.
Response: hi

====

Test system: NCI-H292 lung cancer cells
Assay: FDA drug screening, complete media vs cholesterol-free media with simvastatin (TABLE 2)
Format: cell-based, human
Details: complete media vs cholesterol-free media + simvastatin (0.04 μM); >0 enhanced anti-cancer activity, about 0 neutral, <0 antagonist
Where a name gives a salt, the structure may show the parent alone.
REPORTED METRIC: Difference
Please give only the number in your answer, with no unit.

Below are worked cases with known answers.
[[record]]
molecule = "CCO.C[C@H]1c2cccc(O)c2C(O)=C2C(=O)[C@]3(O)C(O)=C(C(N)=O)C(=O)[C@@H](N(C)C)[C@@H]3[C@@H](O)[C@@H]21.C[C@H]1c2cccc(O)c2C(O)=C2C(=O)[C@]3(O)C(O)=C(C(N)=O)C(=O)[C@@H](N(C)C)[C@@H]3[C@@H](O)[C@@H]21.Cl.Cl.O [Doxycycline (hyclate)]"
readout_value = "−0.19"

[[record]]
molecule = "NC(=O)NC1NC(=O)NC1=O (stereo not shown)"
readout_value = "−0.51"

[[record]]
molecule = "O=C(O)Cc1ccccc1Nc1c(Cl)cccc1Cl"
readout_value = "−0.27"

[[record]]
molecule = "CN(CC(=O)O)C(=N)N"
readout_value = "−0.09"

[[record]]
molecule = "COc1ccccc1OCCNCC(O)COc1cccc2[nH]c3ccccc3c12 (stereo not shown)"
readout_value = "−0.48"

[[record]]
molecule = "CCCCCCCCCCCCN1CCCCCC1=O"
readout_value = "−0.15"

[[record]]
molecule = "CN1CCN2c3ccccc3Cc3ccccc3C2C1 (stereo not shown) [Mianserin (hydrochloride)]"
readout_value = "−0.10"

[[record]]
molecule = "Nc1nnc(-c2cccc(Cl)c2Cl)c(N)n1"
readout_value = "−0.34"

[[record]]
molecule = "C[C@@H](OC[C@@]1(c2ccccc2)CC[C@]2(CCC(=O)N2)CN1)c1cc(C(F)(F)F)cc(C(F)(F)F)c1"
readout_value = "−0.07"

[[record]]
molecule = "CC(C)OC(=O)CCC/C=C\\C[C@@H]1[C@@H](/C=C/C(F)(F)COc2ccccc2)[C@H](O)C[C@@H]1O"
readout_value = "−0.17"


Sample CC(/C=C1\SC(=S)N(CC(=O)O)C1=O)=C\c1ccccc1 ; Difference observed: −0.14

Sample CCCCN(CCCC)C(=O)CN1C[C@H](c2ccc3c(c2)OCO3)[C@@H](C(=O)O)[C@@H]1c1ccc(OC)cc1 [Atrasentan (hydrochloride)] ; Difference observed: −0.24

Sample COc1c(C)c2c(c(O)c1C/C=C(\C)CCC(=O)O)C(=O)OC2 ; Difference observed: −0.22

====

System: NCI-H292 lung cancer cells
Experiment: FDA drug screening, complete media vs cholesterol-free media with simvastatin (TABLE 2)
Format: cell-based, human
Conditions: NCI-H292 cells, FDA library drug in cholesterol-free media with simvastatin 0.04 μM
Counter-ions that a name gives are not always drawn.
REPORTED METRIC: Cholesterol-free media + simvastatin (0.04 μM)
Please give only the number in your answer, with no unit.

[[record]]
compound = "Cc1nnc(SCC2=C(C(=O)[O-])N3C(=O)[C@@H](NC(=O)Cn4cnnn4)[C@H]3SC2)s1.[Na+] [Cefazolin (sodium)]"
readout_value = 1.378

[[record]]
compound = "CC1=C(C(=O)O)N2C(=O)[C@@H](NC(=O)[C@H](N)c3ccccc3)[C@H]2SC1 [Cephalexin (monohydrate)]"
readout_value = 1.59

[[record]]
compound = "Nc1nnc(-c2cccc(Cl)c2Cl)c(N)n1"
readout_value = 1.437


Sample CCOC(=O)[C@H](CCc1ccccc1)N[C@@H](C)C(=O)N1Cc2ccccc2C[C@H]1C(=O)O [Quinapril (hydrochloride)] ; Cholesterol-free media + simvastatin (0.04 μM) observed: 1.23

Sample CCN1CCN(Cc2ccc(Nc3ncc(F)c(-c4cc(F)c5nc(C)n(C(C)C)c5c4)n3)nc2)CC1 ; Cholesterol-free media + simvastatin (0.04 μM) observed: 1.011

Sample COc1ccc2cccc(CCNC(C)=O)c2c1 ; Cholesterol-free media + simvastatin (0.04 μM) observed: 1.184

Sample N#Cc1ccc(C(c2ccc(C#N)cc2)n2cncn2)cc1 ; Cholesterol-free media + simvastatin (0.04 μM) observed: 1.67

====

Cholesterol-free values by entry
Test system: NCI-H292 lung cancer cells
Experiment: FDA drug screening, complete media vs cholesterol-free media without statin (TABLE 1)
Type: cell-based, human
Conditions: NCI-H292 cells in cholesterol-free media without statin
Counter-ions that a name gives are not always drawn.
Please give only the number in your answer, with no unit.

[[record]]
compound = "Cc1ccc(Cl)c(Nc2ccccc2C(=O)O)c1Cl [Meclofenamate (sodium)]"
readout_value = 1.453


Sample Cc1cccc(Cc2c[nH]cn2)c1C [Detomidine (hydrochloride)] ; Cholesterol-free observed: 1.106

Sample CC(=O)[C@H]1CC[C@H]2[C@@H]3C=CC4=CC(=O)CC[C@@]4(C)[C@@H]3CC[C@]12C ; Cholesterol-free observed: 1.745

Sample COc1ccccc1N1CCN(CCCNc2cc(=O)n(C)c(=O)n2C)CC1 ; Cholesterol-free observed: 1.658

Sample CC[C@H]1OC(=O)[C@H](C)[C@@H](O[C@H]2C[C@@](C)(OC)[C@@H](O)[C@H](C)O2)[C@H](C)[C@@H](O[C@@H]2O[C@H](C)C[C@H](N(C)C)[C@H]2O)[C@](C)(OC)C[C@@H](C)C(=O)[C@H](C)[C@@H](O)[C@]1(C)O ; Cholesterol-free observed: 1.607

Sample COC(=O)C1=C(C)NC(C)=C(C(=O)OC)C1c1ccccc1[N+](=O)[O-] ; Cholesterol-free observed: 1.45

Sample O=C(O)Cc1cc(I)c(Oc2ccc(O)c(I)c2)c(I)c1 ; Cholesterol-free observed: 1.869

Sample C[C@H](N[C@@H](CCc1ccccc1)C(=O)O)C(=O)N1CCC[C@H]1C(=O)O.O.O [Enalaprilat (dihydrate)] ; Cholesterol-free observed: 1.525

Sample COCCCN1CCC(NC(=O)c2cc(Cl)c(N)c3c2OCC3)CC1 [Prucalopride] ; Cholesterol-free observed: 1.522

Sample CCCSc1nc(N[C@@H]2C[C@H]2c2ccc(F)c(F)c2)c2nnn([C@@H]3C[C@H](OCCO)[C@@H](O)[C@H]3O)c2n1 ; Cholesterol-free observed: 1.589

Sample CC(C)OC(=O)CCC/C=C\C[C@@H]1[C@@H](/C=C/[C@@H](O)COc2cccc(C(F)(F)F)c2)[C@H](O)C[C@@H]1O ; Cholesterol-free observed: 1.92

Sample Cn1c(=O)c2c(ncn2CC(O)CO)n(C)c1=O (stereo not shown) ; Cholesterol-free observed: 1.559

Sample Cc1cc(C#N)cc(C)c1Oc1nc(Nc2ccc(C#N)cc2)nc(N)c1Br ; Cholesterol-free observed: 1.424

Sample CN(C(=O)CN(CCO)CC(=O)N(C)C(C)(C)Cc1ccccc1)C(C)(C)Cc1ccccc1 ; Cholesterol-free observed: 2.442

Sample Cc1cc(NC(=O)C2=C(O)c3ccccc3S(=O)(=O)N2C)no1 ; Cholesterol-free observed: 1.72

Sample Cc1nnc(SCC2=C(C(=O)O)N3C(=O)[C@@H](NC(=O)Cn4cc(Cl)c(=O)c(Cl)c4)[C@H]3SC2)s1 ; Cholesterol-free observed: 1.61
